test: Ross-Miles foam height (Examples 81-84); assay type: physicochemical; conditions: 0.1% aldonamide, 40° C. (or 5-10° C. above Krafft point), 0 ppm hardness

{"columns": ["compound", "Foam Height Initial (mm)"],
 "data": [
  ["CCCCCCCCCNC(=O)[C@H](O)[C@@H](O)[C@H](O[C@@H]1O[C@H](CO)[C@H](O)[C@H](O)[C@H]1O)[C@H](O)CO [C9 D-Lactobionamide, nonyl D-lactobionamide]", 0],
  ["CCCCCCCCCCCCCCCCNC(=O)[C@H](O)[C@@H](O)[C@H](O[C@@H]1O[C@H](CO)[C@H](O)[C@H](O)[C@H]1O)[C@H](O)CO [C16 D-Lactobionamide]", 95],
  ["CCCCCCCCNC(=O)[C@H](O)[C@@H](O)[C@H](O)[C@H](O)CO [C8 D-Gluconamide]", 0],
  ["CCCCCCCCCCCNC(=O)[C@H](O)[C@@H](O)[C@H](O[C@@H]1O[C@H](CO)[C@H](O)[C@H](O)[C@H]1O)[C@H](O)CO [C11 D-Lactobionamide]", 0],
  ["CCCCCCCNC(=O)[C@H](O)[C@@H](O)[C@H](O)[C@H](O)CO [C7 D-Gluconamide]", 0],
  ["CCCCC(CC)COCCCNC(=O)[C@H](O)[C@@H](O)[C@H](O)[C@H](O)CO (stereo partly drawn) [Ethylhexyloxypropyl D-Gluconamide]", 0],
  ["CCCCCCCCCNC(=O)[C@H](O)[C@@H](O)[C@H](O)[C@H](O)CO [C9 D-Gluconamide]", 0],
  ["CCCCCCCCCCCCOCCCNC(=O)[C@H](O)[C@@H](O)[C@H](O)[C@H](O)CO [C12 Oxypropyl D-Gluconamide]", 200]
]}

----------
test: Krafft point; type: physicochemical; settings: 0.1% in water

{"columns": ["compound", "Krafft Point (0.1%)"],
 "data": [
  ["CCCCCCCCCCCCNC(=O)[C@H](O)[C@H](O)[C@@H](O)[C@@H](O)CO [C12 L-Mannonamide]", "> 100 °C"],
  ["CCCCCCCCNC(=O)[C@H](O)[C@@H](O)[C@H](O)[C@H](O)CO [C8 D-Gluconamide]", "12 °C"],
  ["CCCCCCCCCCCCNC(=O)[C@H](O)[C@H](O)[C@H](O)CO [C12 Ribonamide, dodecyl D-ribonamide]", "54 °C"],
  ["CCCCCCCCCCCCNC(=O)[C@H](O)[C@H](O)[C@@H](O)[C@H](O)[C@H](O)CO [C12 D-Glucoheptonamide]", "91 °C"],
  ["CCCCCCCCCCCCOC(=O)C(C)NC(=O)[C@H](O)[C@@H](O)[C@H](O)[C@H](O)CO (mixture of isomers) [N-D-Gluconyl C12 DL-Alaninate, N-D-Gluconyl Dodecyl DL-Alaninate]", "53 °C"],
  ["CCCCCCCCCCCCNC(=O)[C@H](O)[C@@H](O)[C@@H](O)[C@H](O)CO [C12 D-Galactonamide]", "> 100 °C"],
  ["CCCCCCCCCCCCOCCCNC(=O)[C@H](O)[C@@H](O)[C@H](O)[C@H](O)CO [C12 Oxypropyl D-Gluconamide]", "61 °C"],
  ["CCCCCCCCCCCC(=O)OCCNC(=O)[C@H](O)[C@@H](O)[C@H](O)[C@H](O)CO [N-D-Gluconyl C12 Ester of Ethanolamine]", "63 °C"],
  ["CCCCCCCCCCCCNC(=O)[C@@H](O)[C@H](O)[C@@H](O)[C@@H](O)CO [C12 L-Gluconamide]", "91 °C"],
  ["CCCCCCCCCCCCOCCCNC(=O)[C@H](O)[C@H](O)[C@@H](O)[C@H](O)[C@H](O)CO [C12 Oxypropyl D-Glucoheptonamide]", "73 °C"],
  ["CCCCCCCCCCCCNC(=O)[C@H](O)[C@H](O)[C@@H](O)[C@@H](O)[C@H](O)CO [C12 D-Glycero-L-Mannoheptonamide]", "> 100 °C"],
  ["CCCCCCCCCCCNC(=O)[C@H](O)[C@@H](O)[C@H](O)[C@H](O)CO [C11 D-Gluconamide]", "87 °C"],
  ["CCCCCCCCCNC(=O)[C@H](O)[C@@H](O)[C@H](O)[C@H](O)CO [C9 D-Gluconamide]", "53 °C"],
  ["CCCCC(CC)COCCCNC(=O)[C@H](O)[C@@H](O)[C@H](O)[C@H](O)CO (stereo partly drawn) [Ethylhexyloxypropyl D-Gluconamide]", "< 0 °C"],
  ["CCCCCCCC/C=C\\CCCCCCCCNCCCNC(=O)[C@H](O)[C@@H](O)[C@H](O)[C@H](O)CO [Oleylaminopropyl D-Gluconamide, oleylaminopropyl D-gluconamide]", "< 0 °C"],
  ["CCCCCCCCCCCCOCCOCCOC(=O)CNC(=O)[C@H](O)[C@@H](O)[C@H](O)[C@H](O)CO [N-D-Gluconyl C12 Di(oxyethyl) Glycinate]", "< 0 °C"],
  ["CCCCCCCNC(=O)[C@H](O)[C@@H](O)[C@H](O)[C@H](O)CO [C7 D-Gluconamide]", "< 0 °C"],
  ["CCCCCCCCCCCCOC(=O)CNC(=O)[C@H](O)[C@@H](O)[C@H](O)[C@H](O)CO [N-D-Gluconyl C12 Glycinate, N-D-gluconyl dodecyl glycinate]", "63 °C"],
  ["CCCCCCCCCCCCCCOCCCNC(=O)[C@H](O)[C@@H](O)[C@H](O)[C@H](O)CO [C14 Oxypropyl D-Gluconamide]", "53 °C"]
]}
